# credit: patent US6429204B1

test system: E-10 Cells; experiment: MTS cytotoxicity assay, E-10; conditions: 100 μM, two days
# key: entry, value: percent cytotoxicity
Supply the numeric figure in %, leaving out any unit text.

Sample records with percent cytotoxicity:
>>> value("CN(C)C1C(=O)C(C#N)=C(O)C2(O)C(=O)C3=C(O)c4c(O)cccc4C(C)(O)C3CC12 (centres unmarked) [CMT-2, tetracyclinonitrile]")
2.3
>>> value("CC1(O)c2cccc(O)c2C(=O)C2=C(O)C3(O)C(=O)C(C(N)=O)=C(O)CC3CC21 (centres unmarked) [CMT-1, 4-de(dimethylamino)tetracycline]")
7.6
>>> value("C[C@H]1c2cccc(O)c2C(O)=C2C(=O)[C@]3(O)C(O)=C(C(N)=O)C(=O)C[C@@H]3[C@@H](O)[C@@H]21 [CMT-8]")
0
>>> value("CC1(O)c2cccc(O)c2C(=O)C2=C(O)C3(O)C(=O)C(C(N)=O)=C(O)C(O)C3CC21 (centres unmarked) [CMT-6]")
16.7

Field: next compound
Respond only with percent cytotoxicity recorded for CC1(O)c2cccc(O)c2C(=O)C2=C(O)C3C(=O)C(C(N)=O)=C(O)CC3CC21 (centres unmarked) [CMT-7]
8.3

###

system: COLO 205 Cells; test: MTS cytotoxicity assay, COLO 205; settings: 100 μM, two days
Items are presented alongside their recorded percent cytotoxicity.
# unit: % | format: bare number

Known results for compounds:
>>> value("CN(C)C1C(=O)C(C#N)=C(O)C2(O)C(=O)C3=C(O)c4c(O)cccc4C(C)(O)C3CC12 (stereo not drawn)")
16.3
>>> value("CC1(O)c2cccc(O)c2C(=O)C2=C(O)C3C(=O)C(C(N)=O)=C(O)CC3CC21 (stereo not drawn)")
29.4

Report measured percent cytotoxicity; entry is CC1(O)c2cccc(O)c2C(=O)C2=C(O)C3(O)C(=O)C(C(N)=O)=C(O)CC3CC21 (stereo not drawn)
82.8

Answer with the recorded percent cytotoxicity of CC1(O)c2cccc(O)c2C(=O)C2=C(O)C3(O)C(=O)C(C(N)=O)=C(O)C(O)C3CC21 (stereo not drawn) only.
22.2

Kindly indicate its recorded percent cytotoxicity. Item: NC(=O)C1=C(O)CC2CC3Cc4cccc(O)c4C(=O)C3=C(O)C2(O)C1=O (stereo not drawn)
86.7

Consider the compound `C[C@H]1c2cccc(O)c2C(O)=C2C(=O)[C@]3(O)C(O)=C(C(N)=O)C(=O)C[C@@H]3[C@@H](O)[C@@H]21` and give its recorded percent cytotoxicity.
50

###

test: MTS cytotoxicity assay, COLO 205; settings: human, COLO 205 colon carcinoma cells, percent cytotoxicity, 10 μM, two days
Collected cytotoxicity at 2 days, 10 µM values appear next to each entry.
# value in %; strip the unit string

Note down cytotoxicity at 2 days, 10 µM recorded for C[C@H]1c2cccc(O)c2C(=O)C2=C(O)[C@]3(O)C(=O)C(C(N)=O)=C(O)[C@@H](N(C)C)[C@@H]3[C@@H](O)[C@@H]21 [Doxycycline, 6α-deoxy-5-hydroxy-tetracycline, reference compound]
0

Item NC(=O)C1=C(O)CC2CC3Cc4cccc(O)c4C(=O)C3=C(O)C2(O)C1=O (centres unmarked) : provide cytotoxicity at 2 days, 10 µM
28.8

###

system: E-10 Cells; test: MTS cytotoxicity assay, E-10; conditions: 10 μM, two days
MEASURED_ENDPOINT: percent cytotoxicity (%)
Give the value, in units of %, as a plain number.

Past entries and their recorded results:
>>> value("C[C@H]1c2cccc(O)c2C(O)=C2C(=O)[C@]3(O)C(O)=C(C(N)=O)C(=O)C[C@@H]3[C@@H](O)[C@@H]21")
0
>>> value("CC1(O)c2cccc(O)c2C(=O)C2=C(O)C3C(=O)C(C(N)=O)=C(O)CC3CC21 (stereo not drawn)")
0
>>> value("CC1(O)c2cccc(O)c2C(=O)C2=C(O)C3(O)C(=O)C(C(N)=O)=C(O)CC3CC21 (stereo not drawn)")
0
>>> value("CN(C)C1C(=O)C(C#N)=C(O)C2(O)C(=O)C3=C(O)c4c(O)cccc4C(C)(O)C3CC12 (stereo not drawn)")
3.8
>>> value("CC1(O)c2cccc(O)c2C(=O)C2=C(O)C3(O)C(=O)C(C(N)=O)=C(O)C(O)C3CC21 (stereo not drawn)")
6

Kindly indicate its recorded percent cytotoxicity. Item: NC(=O)C1=C(O)CC2CC3Cc4cccc(O)c4C(=O)C3=C(O)C2(O)C1=O (stereo not drawn)
1.8

###

Listed compounds paired with reported percent cytotoxicity
tested on: E-10 Cells; experiment: MTS cytotoxicity assay, E-10; conditions: 50 μM, two days
Kindly provide the numeric value in % only, without the unit symbol.

>>> value("CC1(O)c2cccc(O)c2C(=O)C2=C(O)C3(O)C(=O)C(C(N)=O)=C(O)CC3CC21 (stereo not drawn)")
2.2
>>> value("C[C@H]1c2cccc(O)c2C(O)=C2C(=O)[C@]3(O)C(O)=C(C(N)=O)C(=O)C[C@@H]3[C@@H](O)[C@@H]21")
0

Now let's try a different one.
Report percent cytotoxicity on E-10 Cells for this entry: CC1(O)c2cccc(O)c2C(=O)C2=C(O)C3C(=O)C(C(N)=O)=C(O)CC3CC21 (stereo not drawn)
0
